test system: IGROV-ET; test: SRB colorimetric assay of cell growth and viability, IGROV-ET; format: cell-based, human; conditions: 48 hours exposure; read-out: LC50 IGROV-ET
Where a SMILES comes first, the peptide text is derived from it. Bridges are numbered along the chain shown (N, C = ends). [ ]: non-standard residue; d: D form. The star is where a group is joined. d(aIle) = CC[C@H](C)[C@@H](N)C(=O)O; d(aThr) = C[C@@H](O)[C@@H](N)C(=O)O; Hexanoyl(5-Me) = CC(C)CCCC(=O)*; Orn = NCCC[C@H](N)C(=O)O; Dhb = C/C=C(\N)C(=O)O
MEASURED_ATTRIBUTE: CC50 (µM)

[
  {
    "MOLECULE": "C/C=C1\\NC(=O)[C@H](Cc2ccccc2)NC(=O)[C@@H](C(C)C)NC(=O)[C@@H]([C@@H](C)CC)NC(=O)[C@H](NC(=O)[C@H](NC(=O)[C@H](CCCN)NC(=O)[C@H]2CCCN2C(=O)[C@H](NC(=O)[C@@H](NC(=O)[C@@H](NC(=O)[C@H](NC(=O)CCCC(C)C)[C@H](C)O)[C@@H](C)O)C(C)C)C(C)C)[C@@H](C)CC)[C@@H](C)OC(=O)[C@H](C(C)C)NC1=O [Compound 41, [D-Thr^13]-KF]",
    "MEASURED_ATTRIBUTE": "CC50",
    "MEASURE_UNIT": "µM",
    "VALUE": 3.16
  },
  {
    "MOLECULE": "C/C=C1\\NC(=O)[C@H](Cc2ccccc2)NC(=O)[C@@H](C(C)C)NC(=O)[C@@H]([C@@H](C)CC)NC(=O)[C@H](NC(=O)[C@H](NC(=O)[C@H](CCCN)NC(=O)[C@H]2CCCN2C(=O)[C@H](NC(=O)[C@@H](NC(=O)[C@@H](NC(=O)[C@@H](Cc2ccccc2)NC(=O)CCCC(C)C)[C@@H](C)O)C(C)C)C(C)C)[C@@H](C)CC)[C@@H](C)OC(=O)[C@H](C(C)C)NC1=O [Compound 36, [D-Phe^13]-KF]",
    "MEASURED_ATTRIBUTE": "CC50",
    "MEASURE_UNIT": "µM",
    "VALUE": 3.55
  },
  {
    "MOLECULE": "C/C=C1\\NC(=O)[C@H](Cc2ccccc2)NC(=O)[C@@H](C(C)C)NC(=O)[C@@H]([C@@H](C)CC)NC(=O)[C@H](NC(=O)[C@H](NC(=O)[C@H](CCCN)NC(=O)[C@H]2CCCN2C(=O)[C@H](NC(=O)[C@H](CCCN)NC(=O)[C@@H](NC(=O)[C@H](NC(=O)CCCC(C)C)C(C)C)[C@@H](C)O)C(C)C)[C@@H](C)CC)[C@@H](C)OC(=O)[C@H](C(C)C)NC1=O [Compound 49, [Orn^11]-KF] ({Hexanoyl(5-Me)}-[dV]T[Orn][dV][dP][Orn][d(aIle)][d(aThr)][d(aIle)][dV]F[Dhb]V; ester 8-C)",
    "MEASURED_ATTRIBUTE": "CC50",
    "MEASURE_UNIT": "µM",
    "VALUE": 6.7
  },
  {
    "MOLECULE": "C/C=C1\\NC(=O)[C@H](Cc2ccccc2)NC(=O)[C@@H](C(C)C)NC(=O)[C@@H]([C@@H](C)CC)NC(=O)[C@H](NC(=O)[C@H](NC(=O)[C@H](CCCN)NC(=O)[C@H]2CCCN2C(=O)[C@H](NC(=O)CCCC(C)C)C(C)C)[C@@H](C)CC)[C@@H](C)OC(=O)[C@H](C(C)C)NC1=O [Compound 31, [noVal^11, noThr^12, noD-Val^13]-KF] ({Hexanoyl(5-Me)}-[dV][dP][Orn][d(aIle)][d(aThr)][d(aIle)][dV]F[Dhb]V; ester 5-C)",
    "MEASURED_ATTRIBUTE": "CC50",
    "MEASURE_UNIT": "µM",
    "VALUE": 6.18
  },
  {
    "MOLECULE": "C/C=C1\\NC(=O)[C@H](Cc2ccccc2)NC(=O)[C@@H](C(C)C)NC(=O)[C@@H]([C@@H](C)CC)NC(=O)[C@H](NC(=O)[C@H](NC(=O)[C@H](CCCN)NC(=O)[C@H]2CCCN2C(=O)[C@H](NC(=O)CNC(=O)[C@@H](NC(=O)[C@H](NC(=O)CCCC(C)C)C(C)C)[C@@H](C)O)C(C)C)[C@@H](C)CC)[C@@H](C)OC(=O)[C@H](C(C)C)NC1=O [Compound 42, [Gly^11]-KF] ({Hexanoyl(5-Me)}-[dV]TG[dV][dP][Orn][d(aIle)][d(aThr)][d(aIle)][dV]F[Dhb]V; ester 8-C)",
    "MEASURED_ATTRIBUTE": "CC50",
    "MEASURE_UNIT": "µM",
    "VALUE": 6.96
  }
]
